Origin of values: paper PMC13242511

tested on: NOTCH1; assay: Western blot analysis of S3-cleaved NOTCH1 (a-N1-V1744); assay type: cell-based; conditions: Western blot quantification, Supplemental Figure 4K; DMSO = 1
V1744, DMSO as reference overview
Measurement name: V1744, DMSO as reference

compound="Cc1ccc2[nH]c3c(c2c1)CCOC31CCN(Cc2ccccc2-c2ccccc2)CC1 [compound B]" measurement_name="V1744, DMSO as reference" observed_result=0.4585
compound="COc1cccc(CNc2ccc(N3CCCCC3)cc2)c1OCc1cccs1 [compound C]" measurement_name="V1744, DMSO as reference" observed_result=0.5945
compound="NC(=O)c1c(NC(=O)NCc2cccnc2)sc2c1CCC2 [compound D]" measurement_name="V1744, DMSO as reference" observed_result=0.9101
compound="CC(C)(C(=O)NCC(F)(F)C(F)(F)F)C(=O)N[C@@H]1C(=O)Nc2ccccc2-c2ccccc21 [RO4929097, reference compound]" measurement_name="V1744, DMSO as reference" observed_result=0.1638
compound="CCc1c(C(=O)N(C)Cc2cnn(C(C)C)c2)[nH]c2ccccc12 [compound A]" measurement_name="V1744, DMSO as reference" observed_result=0.806
compound="CC(C)(C)c1ccc(Oc2ccc(N)cn2)cc1 [CB-103, reference compound]" measurement_name="V1744, DMSO as reference" observed_result=0.6093
compound="Cc1nn(-c2nc3ccccc3s2)c(O)c1C1OC(=O)c2ccccc21 (stereo not shown) [compound E]" measurement_name="V1744, DMSO as reference" observed_result=1.451
